experiment: Cmax in fasted Sprague-Dawley rat at 10 mg/kg, po after 0.083 to 24 hrs by LC-MS/MS method; type: ADME, organism-based; set-up: dose 10 mg/kg, route oral; conditions: in vivo
reported-property: Cmax (ng/mL)
Numbers only, in ng/mL.

IN: Specify reported Cmax for the compound shown: COP(=O)(c1cc(C)cc(/C=C/C#N)c1)c1c(C(N)=O)[nH]c2ccc(Cl)cc12 (single isomer, unassigned; form 1)
OUT: 25

* * *

assay: Half life in fed cynomolgus monkey at 1 mg/kg, iv by LC-MS/MS method; assay type: ADME, organism-based, Macaca fascicularis; conditions: in vivo
reported-property: half-life (h)
Answers are plain numbers, in h.

IN: Give a short answer stating reported half-life for COP(=O)(c1cc(C)cc(/C=C/C#N)c1)c1c(C(N)=O)[nH]c2ccc(Cl)cc12 (single isomer, unassigned; form 1) .
OUT: 2
